target: Estrogen receptor (Mus musculus) (UniProt O08537+P19785); details: Uterus
Sequence (O08537 whole entry, looked up): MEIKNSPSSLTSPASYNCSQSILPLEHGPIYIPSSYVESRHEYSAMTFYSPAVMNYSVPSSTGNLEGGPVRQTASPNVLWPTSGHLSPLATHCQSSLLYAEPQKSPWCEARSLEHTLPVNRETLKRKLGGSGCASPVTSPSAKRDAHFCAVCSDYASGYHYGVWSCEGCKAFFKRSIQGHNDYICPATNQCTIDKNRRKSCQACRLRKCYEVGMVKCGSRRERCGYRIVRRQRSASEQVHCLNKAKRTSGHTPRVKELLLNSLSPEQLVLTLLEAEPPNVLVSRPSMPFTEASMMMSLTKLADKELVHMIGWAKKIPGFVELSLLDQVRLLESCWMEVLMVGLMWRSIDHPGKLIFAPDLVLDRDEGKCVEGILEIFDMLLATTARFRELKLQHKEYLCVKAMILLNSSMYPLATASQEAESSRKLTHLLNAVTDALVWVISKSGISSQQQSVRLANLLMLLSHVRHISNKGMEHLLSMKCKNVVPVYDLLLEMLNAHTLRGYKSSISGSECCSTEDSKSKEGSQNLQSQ
Sequence (P19785 whole entry, looked up): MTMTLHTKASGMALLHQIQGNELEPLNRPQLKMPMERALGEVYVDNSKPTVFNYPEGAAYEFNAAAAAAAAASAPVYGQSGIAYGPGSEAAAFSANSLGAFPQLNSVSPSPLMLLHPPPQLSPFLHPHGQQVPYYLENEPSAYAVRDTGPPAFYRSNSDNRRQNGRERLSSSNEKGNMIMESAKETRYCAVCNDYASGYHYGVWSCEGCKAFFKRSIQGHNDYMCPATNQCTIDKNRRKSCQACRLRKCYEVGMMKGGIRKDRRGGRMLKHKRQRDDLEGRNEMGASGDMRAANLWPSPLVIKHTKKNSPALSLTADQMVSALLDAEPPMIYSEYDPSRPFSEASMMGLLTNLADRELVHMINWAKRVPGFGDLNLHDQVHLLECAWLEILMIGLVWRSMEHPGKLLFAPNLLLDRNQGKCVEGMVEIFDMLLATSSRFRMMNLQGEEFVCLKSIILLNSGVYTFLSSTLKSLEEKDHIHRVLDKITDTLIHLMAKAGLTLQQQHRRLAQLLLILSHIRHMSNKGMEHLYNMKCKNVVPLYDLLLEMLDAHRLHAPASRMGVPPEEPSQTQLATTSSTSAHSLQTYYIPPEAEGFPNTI
Description: Uterine wet weight in ovariectomized mice after 4 weeks of subcutaneous administration at 4 umol/kg (n=5)
Measurement Label: Wet weight (mg)
Give bare numbers, in mg.

Example entries and their recorded answers appear below.
>>> test_result("Oc1ccc2c(c1)sc1c3cc(O)ccc3n(Cc3ccc(OCCN4CCOCC4)cc3)c21")
26.3
>>> test_result("Oc1ccc2c(c1)sc1c3ccccc3n(Cc3ccc(OCCN4CCCCC4)cc3)c21")
34
>>> test_result("Oc1ccc2c(c1)sc1c3cc(O)ccc3n(Cc3ccc(OCCN4CCCCCC4)cc3)c21")
44.2

Batch of 6 molecules: report Wet weight for each.
1. Oc1ccc2c(c1)sc1c3cc(O)ccc3n(Cc3ccc(OCCN4CCCC4)cc3)c21
2. Oc1ccc2c(c1)sc1c3cc(O)ccc3n(Cc3ccc(OCCN4CCCCC4)cc3)c21
3. Oc1ccc2c(c1)sc1c3ccccc3n(Cc3ccc(OCCN4CCCCCC4)cc3)c21
4. CCN(CC)CCOc1ccc(Cn2c3ccccc3c3sc4cc(O)ccc4c32)cc1
5. Oc1ccc2c(c1)sc1c3ccccc3n(Cc3ccc(OCCN4CCCC4)cc3)c21
6. CN(C)CCOc1ccc(Cn2c3ccc(O)cc3c3sc4cc(O)ccc4c32)cc1

1. 30.7
2. 44.2
3. 28.5
4. 34.9
5. 27.6
6. 26.2

Record Wet weight for all entries; do not skip any.
1. CCN(CC)CCOc1ccc(Cn2c3ccc(O)cc3c3sc4cc(O)ccc4c32)cc1
2. Oc1ccc2c(c1)sc1c3ccccc3n(Cc3ccc(OCCN4CCOCC4)cc3)c21
3. CN(C)CCOc1ccc(Cn2c3ccccc3c3sc4cc(O)ccc4c32)cc1

1: 37.7; 2: 27; 3: 28.2

* * *

target: Estrogen receptor (Mus musculus) (UniProt O08537+P19785)
Measurement Label: BMD (mg/cm3)
Numbers only, in mg/cm3.

>>> test_result("Oc1ccc2c(c1)sc1c3cc(O)ccc3n(Cc3ccc(OCCN4CCOCC4)cc3)c21")
470

For each of the compounds below, state BMD.
1. Oc1ccc2c(c1)sc1c3cc(O)ccc3n(Cc3ccc(OCCN4CCCCCC4)cc3)c21
2. CCN(CC)CCOc1ccc(Cn2c3ccc(O)cc3c3sc4cc(O)ccc4c32)cc1
3. Oc1ccc2c(c1)sc1c3ccccc3n(Cc3ccc(OCCN4CCCC4)cc3)c21
4. CCN(CC)CCOc1ccc(Cn2c3ccccc3c3sc4cc(O)ccc4c32)cc1
5. CN(C)CCOc1ccc(Cn2c3ccccc3c3sc4cc(O)ccc4c32)cc1

1. 534
2. 479
3. 505
4. 448
5. 474

I have 6 compounds here; please give me BMD for each one.
1. Oc1ccc2c(c1)sc1c3ccccc3n(Cc3ccc(OCCN4CCCCCC4)cc3)c21
2. Oc1ccc2c(c1)sc1c3ccccc3n(Cc3ccc(OCCN4CCOCC4)cc3)c21
3. Oc1ccc2c(c1)sc1c3cc(O)ccc3n(Cc3ccc(OCCN4CCCCC4)cc3)c21
4. CN(C)CCOc1ccc(Cn2c3ccc(O)cc3c3sc4cc(O)ccc4c32)cc1
5. Oc1ccc2c(c1)sc1c3ccccc3n(Cc3ccc(OCCN4CCCCC4)cc3)c21
6. Oc1ccc2c(c1)sc1c3cc(O)ccc3n(Cc3ccc(OCCN4CCCC4)cc3)c21

1: 444; 2: 455; 3: 548; 4: 480; 5: 436; 6: 469
